Target Entity: High affinity nerve growth factor receptor (Rattus norvegicus)
Sequence (P35739 whole entry): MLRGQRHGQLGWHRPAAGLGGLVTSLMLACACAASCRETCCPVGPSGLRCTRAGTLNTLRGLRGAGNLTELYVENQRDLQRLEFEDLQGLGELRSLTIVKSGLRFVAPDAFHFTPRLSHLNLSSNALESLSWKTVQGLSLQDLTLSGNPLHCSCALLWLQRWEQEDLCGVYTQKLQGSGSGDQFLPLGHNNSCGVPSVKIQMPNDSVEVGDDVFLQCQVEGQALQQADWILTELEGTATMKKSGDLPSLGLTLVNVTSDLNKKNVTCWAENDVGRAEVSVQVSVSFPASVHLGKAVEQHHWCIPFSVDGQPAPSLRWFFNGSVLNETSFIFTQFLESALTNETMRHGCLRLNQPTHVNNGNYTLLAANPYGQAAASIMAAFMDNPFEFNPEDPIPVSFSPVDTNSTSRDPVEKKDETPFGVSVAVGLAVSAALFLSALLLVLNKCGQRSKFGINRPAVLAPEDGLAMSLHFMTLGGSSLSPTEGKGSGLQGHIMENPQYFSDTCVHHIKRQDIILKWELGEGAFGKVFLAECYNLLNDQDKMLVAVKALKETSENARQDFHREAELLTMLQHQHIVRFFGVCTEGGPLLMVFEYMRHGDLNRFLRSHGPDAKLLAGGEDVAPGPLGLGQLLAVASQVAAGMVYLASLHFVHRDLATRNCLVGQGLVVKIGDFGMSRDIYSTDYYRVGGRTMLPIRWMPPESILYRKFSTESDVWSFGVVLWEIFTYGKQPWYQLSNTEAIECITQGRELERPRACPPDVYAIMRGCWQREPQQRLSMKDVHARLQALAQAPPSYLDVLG
Protocol Summary: Inhibition of NGF-induced TrkA auto-phosphorylation in rat PC12 cells incubated for 15 mins by chemiluminescence based method
Metric Name: EC50 (µM)
# output: bare number, implied unit µM

Recorded result, `O=C1c2cccc3cc([N+](=O)[O-])cc(c23)C(=O)N1NCCO` , EC50: 22

###

Target Entity: BDNF/NT-3 growth factors receptor (Homo sapiens)
Sequence (Q16620 whole entry, the tested form may be a part): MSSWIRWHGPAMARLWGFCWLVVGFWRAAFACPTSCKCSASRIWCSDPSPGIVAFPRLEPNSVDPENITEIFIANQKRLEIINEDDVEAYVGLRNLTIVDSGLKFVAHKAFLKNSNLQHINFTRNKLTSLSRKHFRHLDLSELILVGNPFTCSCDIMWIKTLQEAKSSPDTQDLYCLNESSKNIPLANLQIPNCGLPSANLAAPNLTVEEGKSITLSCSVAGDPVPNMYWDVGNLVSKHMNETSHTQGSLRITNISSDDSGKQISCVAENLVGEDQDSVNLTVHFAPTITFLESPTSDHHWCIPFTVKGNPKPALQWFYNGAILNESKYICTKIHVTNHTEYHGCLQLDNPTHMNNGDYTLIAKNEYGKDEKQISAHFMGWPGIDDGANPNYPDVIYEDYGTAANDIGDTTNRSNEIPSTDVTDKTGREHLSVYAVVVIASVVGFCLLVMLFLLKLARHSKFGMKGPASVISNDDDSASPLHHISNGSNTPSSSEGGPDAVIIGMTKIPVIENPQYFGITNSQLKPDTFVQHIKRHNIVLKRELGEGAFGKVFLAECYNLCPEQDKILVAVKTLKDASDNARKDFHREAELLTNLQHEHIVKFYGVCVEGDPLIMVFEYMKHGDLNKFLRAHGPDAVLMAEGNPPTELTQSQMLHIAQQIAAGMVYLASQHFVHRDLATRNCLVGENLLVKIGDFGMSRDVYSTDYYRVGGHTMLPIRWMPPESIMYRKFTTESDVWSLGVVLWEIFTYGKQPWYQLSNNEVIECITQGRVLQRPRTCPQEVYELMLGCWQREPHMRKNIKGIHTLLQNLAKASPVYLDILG
Protocol Summary: Inhibition of N-terminal GST tagged human TrkB cytoplasmic domain (456 to 822 amino acids) pre-incubated for 15 mins before peptide substrate addition for 180 mins by fluorescence based assay
Metric Name: pIC50
In textbook form, pIC50 equals minus log to base ten of the concentration in mol/L.

get_value(item= `COc1ccc(COc2ccc(Cn3c(N)nc4cc(-c5cnn(C)c5)ccc43)cc2OC)cc1` , readout=pIC50) returns 9.52
